Item-by-item account of pIC50
Target: human PD-1 / PD-L1-Ig binding on Jurkat cell line over-expressing human PD-1 (Jurkat-PD-1) (Homo sapiens, UniProt Q15116)
Construct: expressed in transfected cells; host or cells: Jurkat
Sequence (Q15116 25-288): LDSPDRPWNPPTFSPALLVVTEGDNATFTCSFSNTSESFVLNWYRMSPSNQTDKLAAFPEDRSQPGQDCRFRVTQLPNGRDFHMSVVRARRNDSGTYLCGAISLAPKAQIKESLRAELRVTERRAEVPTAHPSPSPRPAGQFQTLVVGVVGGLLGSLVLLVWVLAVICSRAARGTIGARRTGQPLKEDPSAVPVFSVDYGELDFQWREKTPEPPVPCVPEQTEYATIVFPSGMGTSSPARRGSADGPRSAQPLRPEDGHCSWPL
Test: Jurkat-PD-1 Cell Binding High-Content Screening Assay (CBA)
Format: cell-based
Conditions: Jurkat-PD-1 cells, PE-labeled PD-L1-Ig 20 nM final; read-out: Jurkat HPD1_PDL1 IC50
Method: Example 3. Jurkat-PD-1 Cell Binding High-Content Screening Assay (CBA) Jurkat-PD-1 Cell Binding High-Content Screening Assay (CBA). Phycoerythrin (PE) was covalently linked to the Ig epitope tag of human PD-L1-Ig and fluorescently-labeled PD-L1-Ig was used for binding studies with a Jurkat cell line over-expressing human PD-1 (Jurkat-PD-1). Briefly, 8×10^3 Jurkat-hPD-1 cells were seeded into 384 well plates in 20 μl of DMEM supplemented with 10% fetal calf serum. […]
Scale: negative log10 of molar concentration, which is what pIC50 denotes.

Worked cases, answers included:
* CC[C@H](C)[C@@H]1NC(=O)[C@H](Cc2ccc(-c3ccccc3)cc2)NC(=O)[C@H](C(C)C)NC(=O)[C@H](Cc2c[nH]c3ccccc23)NC(=O)[C@H](CC(=O)O)NC(=O)[C@H](Cc2ccc(OCC(=O)O)cc2)NC(=O)[C@H](Cc2ccncc2)NC(=O)CSC[C@@H](C(=O)N[C@@H](C)C(N)=O)NC(=O)[C@H]([C@@H](C)O)NC(=O)[C@H](C(C)C)NC(=O)[C@H](CC2CCCCC2)NC(=O)[C@H](Cc2cnc[nH]2)NC(=O)[C@@H](CC(C)C)NC(=O)[C@H](CCCN)NC1=O | 7.49
* CC(C)C[C@H]1NC(=O)[C@H](CCCN)NC(=O)[C@H](CCC(=O)O)NC(=O)[C@H](Cc2ccc(-c3ccccc3)cc2)NC(=O)[C@H](C(C)C)NC(=O)[C@H](Cc2cccc(Cl)c2)NC(=O)[C@H](CC(=O)O)NC(=O)[C@H](Cc2ccc(OCC(=O)O)cc2)NC(=O)[C@H](Cc2ccncc2)NC(=O)CSC[C@@H](C(=O)N[C@@H](C)C(N)=O)NC(=O)[C@H]([C@@H](C)O)NC(=O)[C@H](C(C)C)NC(=O)[C@H](CC2CCCCC2)NC(=O)[C@H](CCN)NC1=O | 7.65
* CCC(C)[C@@H]1NC(=O)[C@H](Cc2ccc(-c3ccccc3)cc2)NC(=O)[C@H](C(C)C)NC(=O)[C@H](Cc2c[nH]c3ccccc23)NC(=O)[C@H](CC(=O)O)NC(=O)[C@H](Cc2ccc(-c3cccc(C(=O)O)c3)cc2)NC(=O)[C@H](Cc2ccc(OCC(=O)O)cc2)NC(=O)CSC[C@@H](C(=O)N[C@@H](C)C(N)=O)NC(=O)[C@H]([C@@H](C)O)NC(=O)[C@H](C(C)C)NC(=O)[C@H](CC2CCCCC2)NC(=O)[C@H](CCN)NC(=O)[C@@H](CC(C)C)NC(=O)[C@H](CCCN)NC1=O (stereo partly shown) | 7.46

Query: // returns reported pIC50 for input "CC(C)C[C@H]1NC(=O)[C@H](CCCN)NC(=O)[C@H](C(C)C)NC(=O)[C@H](Cc2ccc(-c3ccccc3)cc2)NC(=O)[C@H](C(C)C)NC(=O)[C@H](Cc2c[nH]c3ccccc23)NC(=O)[C@H](CC(=O)O)NC(=O)[C@H](Cc2ccc(C(=O)O)cc2)NC(=O)[C@H](Cc2ccncc2)NC(=O)CSC[C@@H](C(=O)N[C@@H](C)C(N)=O)NC(=O)[C@H]([C@@H](C)O)NC(=O)[C@H](C(C)C)NC(=O)[C@H](CC2CCCCC2)NC(=O)[C@H](CCN)NC1=O"
Result: 7.57

Data provenance: patent US20250163104A1
